SYSTEM: 5-hydroxytryptamine receptor 1A (Homo sapiens, UniProt P08908)
Sequence (P08908 whole entry): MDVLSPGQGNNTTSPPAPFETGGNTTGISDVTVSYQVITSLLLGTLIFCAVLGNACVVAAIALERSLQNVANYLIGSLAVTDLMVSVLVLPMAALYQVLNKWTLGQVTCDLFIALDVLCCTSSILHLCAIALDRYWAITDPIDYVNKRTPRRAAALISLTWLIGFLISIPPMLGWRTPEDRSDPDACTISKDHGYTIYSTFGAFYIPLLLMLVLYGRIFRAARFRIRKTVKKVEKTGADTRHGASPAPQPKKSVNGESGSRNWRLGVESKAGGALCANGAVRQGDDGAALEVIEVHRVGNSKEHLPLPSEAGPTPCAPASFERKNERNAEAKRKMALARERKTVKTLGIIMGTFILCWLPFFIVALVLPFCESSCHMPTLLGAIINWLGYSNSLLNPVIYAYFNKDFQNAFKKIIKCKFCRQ
ASSAY DETAILS: biochemical
Description: Displacement of [3H]8-OH-DPAT from human 5HT1A receptor expressed in HEK293 EBNA cells after 2 hrs by liquid scintillation counting
MEASURED METRIC: Ki (nM)

> print(dat)
                                   molecule  experimental.result
1  COc1ccccc1N1CCN(CCN(C(=O)C23C4C5C2C2C3C4C52CF)c2ccccn2)CC1 (stereo not drawn)                 0.54

[P] O=C(N(CCN1CCN(c2ccccc2O)CC1)c1ccccn1)C12C3C4C1C1C2C3C41CF (stereo not drawn)
[Q] COc1ccccc1N1CCN(CCN(C(=O)C23CC4CC(CC(CF)(C4)C2)C3)c2ccccn2)CC1
IN: Thinking about recorded Ki values, which is higher, P or Q ? Give the label under which the chosen entry appears.
OUT: Q
(Q: 1.82 nM, P: 0.58 nM)

###

Target chain: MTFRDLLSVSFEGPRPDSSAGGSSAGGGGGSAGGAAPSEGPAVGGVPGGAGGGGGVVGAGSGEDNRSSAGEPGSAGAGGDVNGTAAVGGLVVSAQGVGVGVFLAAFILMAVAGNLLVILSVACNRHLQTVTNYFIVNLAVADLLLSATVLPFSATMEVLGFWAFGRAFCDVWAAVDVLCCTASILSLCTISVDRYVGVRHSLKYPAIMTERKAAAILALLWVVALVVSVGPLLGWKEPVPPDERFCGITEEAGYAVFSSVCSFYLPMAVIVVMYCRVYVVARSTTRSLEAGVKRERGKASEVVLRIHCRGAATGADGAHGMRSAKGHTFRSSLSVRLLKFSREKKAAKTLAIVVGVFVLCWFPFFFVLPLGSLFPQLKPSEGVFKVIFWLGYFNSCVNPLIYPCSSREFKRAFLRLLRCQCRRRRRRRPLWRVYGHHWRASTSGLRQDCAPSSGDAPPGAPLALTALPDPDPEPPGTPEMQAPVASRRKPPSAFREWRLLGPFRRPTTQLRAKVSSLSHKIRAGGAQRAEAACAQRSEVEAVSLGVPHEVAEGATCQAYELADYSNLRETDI
MEASURED METRIC: Ki (nM)

> print(dat)
                                   compound  unit.abbreviation  experimental.result
1  COc1ccccc1N1CCN(CCN(C(=O)C23CCC(CF)(CC2)C3)c2ccccn2)CC1                 nM                   19
2  COc1ccccc1N1CCN(CCN(C(=O)C23C4C5C2C2C3C4C52CF)c2ccccn2)CC1 (configuration not stated)                 nM                   27

###

SYSTEM: 5-hydroxytryptamine receptor 1A (Homo sapiens, UniProt P08908)
ASSAY DETAILS: biochemical
Description: Displacement of [3H]8-OH-DPAT from 5HT1A receptor expressed in HEK293 EBNA cells by radioligand binding assay
pKi: −log10 of the molar value.
MEASURED METRIC: pKi

> print(dat)
                                   molecule  experimental.result
1  COc1ccccc1N1CCN(CCN(C(=O)C23CCC(CF)(CC2)C3)c2ccccn2)CC1                 9.05

[1] COc1ccccc1N1CCN(CCN(C(=O)C23CCC(CF)(CC2)CC3)c2ccccn2)CC1
[2] COc1ccccc1N1CCN(CCN(C(=O)C23C4C5C2C2C3C4C52CF)c2ccccn2)CC1 (stereo not drawn)
IN: Which item exceeds the other in pKi, 1 or 2 ? Give the chosen item's label as your response.
OUT: 2
(2: 9.70, 1: 8.96)
